Numbers sourced from patent US7943624B2.

compounds and their reported IC50
Biological target: PDE 7 (phosphodiesterase VII) (Homo sapiens)
Construct: filtrated with 0.2 μm filter to obtain the soluble fraction; endogenous in cells; soluble fraction, HiTrap Q eluate at about 350 mM NaCl
Sequence (Q13946 whole entry): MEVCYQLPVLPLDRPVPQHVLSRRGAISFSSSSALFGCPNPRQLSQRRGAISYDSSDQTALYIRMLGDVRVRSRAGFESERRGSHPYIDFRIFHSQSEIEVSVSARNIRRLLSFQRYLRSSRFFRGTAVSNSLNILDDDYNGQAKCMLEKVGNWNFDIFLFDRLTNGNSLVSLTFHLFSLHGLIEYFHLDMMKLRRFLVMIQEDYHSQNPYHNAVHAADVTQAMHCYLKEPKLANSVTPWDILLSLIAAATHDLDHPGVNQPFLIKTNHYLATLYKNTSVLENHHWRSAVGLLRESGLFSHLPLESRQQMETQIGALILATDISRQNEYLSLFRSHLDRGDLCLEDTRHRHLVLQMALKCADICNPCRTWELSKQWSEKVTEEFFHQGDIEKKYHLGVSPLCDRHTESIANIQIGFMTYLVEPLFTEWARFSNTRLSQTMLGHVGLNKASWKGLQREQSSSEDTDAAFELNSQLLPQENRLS
Experiment: PDE 7 inhibiting effect (Biological Test 1; 3H-cAMP hydrolysis by PDE 7 fraction from MOLT-4 cells)
Details: PDE 7 active fraction from MOLT-4 cells; 0.064 μM cAMP, 10 μM rolipram, 2 hours at 25° C.

Param item = COc1nc(S(=O)(=O)N2CCCN(C)CC2)ccc1-c1nc2c(c(C3CCCCC3)nn2C)c(=O)[nH]1 [Compound 36] ; retrieve measured IC50. ≤ 100 nM

Next compound: CCOc1nc(N2CCCN(C)CC2)ccc1-c1nc2c(C)nn(C3CCCCC3)c2c(=O)[nH]1 [Compound 44] ≤ 100 nM
